measured on: human M3 muscarinic receptor (Homo sapiens, UniProt P20309)
Construct: expressed in transfected cells; host or cells: CHO-K1
Sequence (P20309 whole entry): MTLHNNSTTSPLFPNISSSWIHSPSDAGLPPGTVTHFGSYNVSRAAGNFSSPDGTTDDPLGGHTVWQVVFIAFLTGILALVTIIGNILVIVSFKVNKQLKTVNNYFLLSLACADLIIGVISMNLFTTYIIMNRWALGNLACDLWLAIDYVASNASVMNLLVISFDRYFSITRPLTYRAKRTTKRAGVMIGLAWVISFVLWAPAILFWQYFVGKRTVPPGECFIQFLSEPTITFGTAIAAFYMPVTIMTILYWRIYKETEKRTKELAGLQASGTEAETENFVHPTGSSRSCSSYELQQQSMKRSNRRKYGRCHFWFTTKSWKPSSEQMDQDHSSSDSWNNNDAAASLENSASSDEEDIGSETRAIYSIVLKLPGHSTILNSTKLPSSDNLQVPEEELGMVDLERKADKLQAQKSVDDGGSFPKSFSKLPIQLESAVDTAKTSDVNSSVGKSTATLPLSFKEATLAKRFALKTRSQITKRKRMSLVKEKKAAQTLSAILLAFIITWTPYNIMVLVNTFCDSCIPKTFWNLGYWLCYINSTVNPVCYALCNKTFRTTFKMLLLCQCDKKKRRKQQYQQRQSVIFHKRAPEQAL
experiment description: Inhibitory effect on methacholine-induced calcium influx, FLIPR assay, CHO-K1 cells stably expressing the human M3 muscarinic receptor
Assay type: cell-based
condition notes: inhibition of calcium influx induced by methacholine
Counter-ions that a name gives are not always drawn.
Below, each of the compounds is paired with its reported IC50 value.
Report the figure in nM without appending any unit label.

compound	IC50, nM
C[N+]1(C)CCC(OC(=O)Nc2cc(CCC(=O)Nc3ccc(CNC[C@H](O)c4ccc(O)c5[nH]c(=O)ccc45)cc3F)ccc2-c2ccccc2)CC1 [Example 4]	4.9
C[N+]1(C)CCC(OC(=O)Nc2cc(CCC(=O)Nc3ccc(CNC[C@H](O)c4ccc(O)c5[nH]c(=O)ccc45)c(F)c3)ccc2-c2ccccc2)CC1 [Example 7]	14.5

Exercise: Given COc1cc(NC(=O)CCCc2ccc(-c3ccccc3)c(NC(=O)OC3CC[N+](C)(C)CC3)c2)c(Cl)cc1CNC[C@H](O)c1ccc(O)c2[nH]c(=O)ccc12 [Example 18, trifluoroacetate] , respond with its IC50.
Solution: 8.9

###

Measured pIC50 by item
measured on: human M3 muscarinic receptor (Homo sapiens, UniProt P20309)
Construct: expressed in transfected cells; host or cells: CHO-K1
experiment description: Inhibitory effect on methacholine-induced calcium influx, FLIPR assay, CHO-K1 cells stably expressing the human M3 muscarinic receptor
Type: cell-based
condition notes: inhibition of calcium influx induced by methacholine
Where a name gives a salt, the structure may show the parent alone.
Interpret pIC50 as the negative base-10 log of the concentration measured in mol/L.

Exercise: Complete the entry with pIC50 for C[N+]1(C)[C@@H]2C[C@@H](OC(=O)Nc3ccc(CCCC(=O)Nc4ccc(CNC[C@H](O)c5ccc(O)c6[nH]c(=O)ccc56)cc4Br)cc3-c3ccccc3)C[C@H]1[C@@H]1O[C@@H]12
Solution: 7.31

Exercise: Please supply the value of reported pIC50 for the item C[N+]1(C)CCC(OC(=O)Nc2cc(CCC(=O)Nc3ccc(CNC[C@H](O)c4ccc(O)c5[nH]c(=O)ccc45)cc3)ccc2-c2ccccc2)CC1 [Example 1, trifluoroacetate]
Solution: 8.19

Exercise: Consider the compound COc1cc(CNC[C@H](O)c2ccc(O)c3[nH]c(=O)ccc23)ccc1NC(=O)CCCc1ccc(-c2ccccc2)c(NC(=O)OC2C[C@@H]3[C@H]4O[C@H]4[C@H](C2)[N+]3(C)C)c1 (stereo partly shown) . State its measured pIC50.
Solution: 7.81

Exercise: Input C[N+]1(C)CCC(OC(=O)Nc2cc(CCCC(=O)Nc3ccc(CNC[C@H](O)c4ccc(O)c5[nH]c(=O)ccc45)c(C(F)(F)F)c3)ccc2-c2ccccc2)CC1 [Example 31, trifluoroacetate] , output reported pIC50.
Solution: 7.80

Exercise: Recall and state the measured pIC50 for CCOc1cc(NC(=O)CCCc2ccc(-c3ccccc3)c(NC(=O)OC3CC[N+](C)(C)CC3)c2)c(Cl)cc1CNC[C@H](O)c1ccc(O)c2[nH]c(=O)ccc12 [Example 26, trifluoroacetate] .
Solution: 7.63

Exercise: Consider the compound C[N+]1(C)CCC(OC(=O)Nc2cc(CCCC(=O)Nc3ccc(CNC[C@H](O)c4ccc(O)c5[nH]c(=O)ccc45)cn3)ccc2-c2ccccc2)CC1 [Example 24, trifluoroacetate] . State its measured pIC50.
Solution: 7.93

Exercise: For the compound C[N+]1(C)[C@@H]2CC(OC(=O)Nc3cc(CCC(=O)Nc4ccc(CNC[C@H](O)c5ccc(O)c6[nH]c(=O)ccc56)c(Cl)c4)ccc3-c3ccccc3)C[C@H]1[C@@H]1O[C@@H]12 (stereo partly shown) , report pIC50.
Solution: 7.58

Exercise: Return pIC50 (reported value) for this compound: C[N+]1(C)CCC(OC(=O)Nc2cc(CCCC(=O)Nc3ccc(CNC[C@H](O)c4ccc(O)c5[nH]c(=O)ccc45)c(Cl)c3)ccc2-c2ccccc2)CC1 [Example 29, trifluoroacetate]
Solution: 7.87

Exercise: Give the reported value of pIC50 for this record: C[N+]1(C)[C@@H]2C[C@@H](OC(=O)Nc3ccc(CCCC(=O)Nc4ccc5cc(CNC[C@H](O)c6ccc(O)c7[nH]c(=O)ccc67)ccc5c4)cc3-c3ccccc3)C[C@H]1[C@@H]1O[C@@H]12
Solution: 7.19

Exercise: Write down pIC50 measured for item C[N+]1(C)[C@@H]2C[C@@H](OC(=O)Nc3cc(CCCC(=O)Nc4ccc(CNC[C@H](O)c5ccc(O)c6[nH]c(=O)ccc56)cc4)ccc3-c3ccccc3)C[C@H]1[C@@H]1O[C@@H]12
Solution: 7.66
